Values were extracted from ChEMBL document CHEMBL4052763.

test: Volume of distribution at steady state in iv dosed Sprague-Dawley rat; assay type: ADME, organism-based; conditions: in vivo, read-out: Vdss
quantity-kind: Vd

[
  {
    "molecule": "Cc1csc2c(-n3nc(Nc4ccc(N5CCN(C6CC7CCC6C7)CC5)cc4)nc3N)nc(Cl)nc12 (racemic)",
    "observed-value": "4.4 L/kg"
  },
  {
    "molecule": "Nc1nc(Nc2ccc(N3CCN(C4CC5CCC4C5)CC3)cc2)nn1-c1nccc2ccccc12 (racemic)",
    "observed-value": "8.8 L/kg"
  },
  {
    "molecule": "Nc1nc(Nc2ccc(N3CCN(C4CC5CCC4C5)CC3)cc2)nn1-c1ncnc2ccc(F)cc12 (racemic)",
    "observed-value": "7.9 L/kg"
  },
  {
    "molecule": "COc1cc2ncnc(-n3nc(Nc4ccc(N5CCN(C6CC7CCC6C7)CC5)c(Cl)c4)nc3N)c2cc1OC (centres undefined)",
    "observed-value": "27 L/kg"
  }
]
